// provenance: PubChem BioAssay

- test-description: endothelial E-selectin expression blockers – imaging, HUVEC, immunofluorescence, MLSMR starter and 10KST1 sets, primary screen (AID 487);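 further: 100% = median nuclei count of all wells on the same plate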
- conditions: HUVEC TNFalpha-induced E-selectin immunofluorescence imaging, at 2 µM; measured here: cell number, toxicity
reported-endpoint: nuclei count (%)

CCOC(=O)Cn1c(N2CCOCC2)nc2c1c(=O)[nH]c(=O)n2C: 107
CC(C)CC(c1nnnn1C(C)(C)C)N1CCN(C2CCCC2)CC1 (stereo not given): 109
COc1ccc(S(=O)(=O)Nc2ccccc2SC)cc1C: 105
CSCCC(NC(=O)CCN1C(=O)c2ccccc2C1=O)C(=O)O (stereo not given): 110
O=C(CSc1ncn[nH]1)c1ccco1: 119
Cc1ccc2c(c1)-c1c(cnn1CC(=O)Nc1ccccc1N1CCN(C)CC1)CO2: 108
Cc1ccc(-c2nnc3c4ccccc4c(C)nn23)cc1S(=O)(=O)N1CCN(C)CC1: 81.2
COc1ccccc1C(=O)NCC(c1cccnc1)N(C)C (stereo not given): 122
COc1cccc(OC)c1C(=O)n1nc(C)cc1C: 95.6
CC(N)C12CC3CC(C1)CC(C(C)N)(C3)C2 (stereo not given): 103
Cc1nc(C)c2c(c1C(F)(F)F)-c1ccccc1C2(F)F: 107
Nc1nnc(-c2ccccc2)c(-c2ccccc2)n1: 111
CCOC(=O)c1ccc(-n2c(C)nc3c(cnn3-c3ccccc3C)c2=O)cc1: 108
Cc1nc(C)n(C(C)CC(=O)O)n1 (stereo not given): 115
COCCCn1c(=N)c(C(=O)NCC2CCCO2)cc2c(=O)n3cccc(C)c3nc21 (stereo not given): 67.6
O=S(=O)(Nc1cccc2ncccc12)c1cccs1: 23.8
COc1ccc(C2C(C(C)=O)=C(O)C(=O)N2C)c(OC)c1 (stereo not given): 136
CCCOc1ccc(N2C(=O)CC(NCCCN3CCC(C(N)=O)CC3)C2=O)cc1 (stereo not given): 110
Nc1nnc(-c2cc3ccccc3oc2=O)s1: 123
O=C(NCCC1=CCCCC1)C1CCN(S(=O)(=O)c2cnc[nH]2)CC1: 117
O=C(c1nn2cccnc2c1Cl)N1CCN(c2ccccc2)CC1: 94.5
CC(=O)Nc1c(O)[nH]c2ccccc12: 102
Cc1cc(Nc2ccccc2)n(CCC#N)n1: 129
CCOc1ccc(S(=O)(=O)n2c(C)nc3ccccc32)cc1: 115
Oc1ccccc1C1=Nc2nc3ccccc3n2C(c2ccccc2)C1 (stereo not given): 102
